Entries and their IC50
STUDY TARGET: T1, human GLP-1 receptor (human, UniProt P43220 24-463)
T1 construct: whole, on cells
ASSAY PROTOCOL: competitive binding (SPA): displacement of 125I-GLP-1(7-36)NH2 from BHK cell membranes with human GLP-1 receptor; low HSA (max. 0.001% final)
Numbered stars: 1 amine (or outer) side, 2 acyl side, 3 side chain; on linkers, the order of the positions; unused ones are H or OH. Square brackets hold non-standard residues; d marks the D form. Side chains are listed from the residue outwards. Ends that are not written are not given here. * marks the point of attachment. C22 diacid = O=C(O)CCCCCCCCCCCCCCCCCCCCC(=O)*; C20 diacid = O=C(O)CCCCCCCCCCCCCCCCCCC(=O)*; γGlu = O=C(O)[C@H](CCC(=O)[*:2])N[*:1]; Trx = NC[C@H]1CC[C@H](C(=O)O)CC1; AEEA = NCCOCCOCC(=O)O; Aib = CC(C)(N)C(=O)O

[
  {
    "BINDER": "H[Aib]EGTFTSDVSSYLEEQAAREFIAWLVRGRGK([AEEA-AEEA-γGlu-Trx-C22 diacid])GGSK([AEEA-AEEA-γGlu-Trx-C22 diacid]) (Double-acylated, C-terminally extended GLP-1 analogue made by SPPS)",
    "IC50 [nM]": 1.6
  },
  {
    "BINDER": "H[Aib]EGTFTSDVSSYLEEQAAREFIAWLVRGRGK([AEEA-AEEA-γGlu-Trx-C20 diacid])GGSK([AEEA-AEEA-γGlu-Trx-C20 diacid]) (Double-acylated, C-terminally extended GLP-1 analogue made by SPPS)",
    "IC50 [nM]": 1.2
  },
  {
    "BINDER": "H[Aib]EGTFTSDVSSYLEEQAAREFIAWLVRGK([AEEA-AEEA-γGlu-Trx-C20 diacid])GGGGSK([AEEA-AEEA-γGlu-Trx-C20 diacid]) (Double-acylated, C-terminally extended GLP-1 analogue made by SPPS)",
    "IC50 [nM]": 1.1
  },
  {
    "BINDER": "H[Aib]EGTFTSDVSSYLEEQAAREFIAK([AEEA-AEEA-γGlu-Trx-C20 diacid])LVRGRGGGGSK([AEEA-AEEA-γGlu-Trx-C20 diacid]) (Double-acylated, C-terminally extended GLP-1 analogue made by SPPS)",
    "IC50 [nM]": 1.4
  }
]
